testedOn: Prostaglandin E2 receptor EP4 subtype (Homo sapiens, UniProt P35408)
Sequence (P35408 whole entry): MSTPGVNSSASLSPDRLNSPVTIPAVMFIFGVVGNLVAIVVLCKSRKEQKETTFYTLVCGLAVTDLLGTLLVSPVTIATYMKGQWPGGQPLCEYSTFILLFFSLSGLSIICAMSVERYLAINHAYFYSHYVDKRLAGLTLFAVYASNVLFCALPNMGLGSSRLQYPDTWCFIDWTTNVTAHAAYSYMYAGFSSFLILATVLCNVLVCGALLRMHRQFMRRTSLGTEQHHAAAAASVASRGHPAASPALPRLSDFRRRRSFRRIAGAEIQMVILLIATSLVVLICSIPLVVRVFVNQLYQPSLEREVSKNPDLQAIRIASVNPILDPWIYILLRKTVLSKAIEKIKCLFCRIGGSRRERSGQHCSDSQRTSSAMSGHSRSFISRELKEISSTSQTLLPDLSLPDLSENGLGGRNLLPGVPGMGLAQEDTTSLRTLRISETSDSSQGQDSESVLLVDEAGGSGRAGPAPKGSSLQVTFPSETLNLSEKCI
recordedMetric: Ki

- O=C([O-])COc1cccc(C[C@@H]2CCC[C@@H]3O[C@]23c2nc(-c3ccccc3)c(-c3ccccc3)o2)c1.[Na+]: 7.2 µM

* * *

testedOn: UniProt:P43119
Sequence (P43119 whole entry): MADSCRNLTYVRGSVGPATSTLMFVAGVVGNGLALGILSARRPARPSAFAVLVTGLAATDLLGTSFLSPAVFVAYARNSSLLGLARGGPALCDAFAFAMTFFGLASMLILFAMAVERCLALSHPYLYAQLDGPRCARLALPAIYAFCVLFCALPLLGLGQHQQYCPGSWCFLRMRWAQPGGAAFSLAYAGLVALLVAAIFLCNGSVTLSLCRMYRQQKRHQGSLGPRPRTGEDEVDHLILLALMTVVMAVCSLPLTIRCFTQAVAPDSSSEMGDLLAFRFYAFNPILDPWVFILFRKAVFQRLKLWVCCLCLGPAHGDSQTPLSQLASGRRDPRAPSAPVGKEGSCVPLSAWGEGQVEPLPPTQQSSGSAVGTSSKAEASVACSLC
recordedMetric: Ki (nM)

* O=C([O-])COc1cccc(C[C@@H]2CCC=C2c2nc(-c3ccccc3)c(-c3ccccc3)o2)c1.[Na+] | 41

* * *

The entries below come with measured Cmax values attached.
measurementNotes: Maximum (Peak) plasma drug concentration after single-dose administration at a dose of 0.32 (mg/kg) in rat
Type: ADME, organism-based
Design: dose 0.32 mg/kg
recordedMetric: Cmax (ng/mL)

• O=C([O-])COc1cccc(C[C@@H]2CCC=C2c2nc(-c3ccccc3)c(-c3ccccc3)o2)c1.[Na+] = 45.2
• O=C([O-])COc1cccc(C[C@@H]2CCCC=C2c2nc(-c3ccccc3)c(-c3ccccc3)o2)c1.[Na+] = 16.4

* * *

measurementNotes: Area Under Plasma concentration-time curve after peroral administration at a dose of 1 (mg/kg) in rat
Type: ADME, organism-based
setupConditions: po
recordedMetric: AUC (ng·h/mL)

• O=C([O-])COc1cccc(C[C@@H]2CCC[C@@H]3O[C@]23c2nc(-c3ccccc3)c(-c3ccccc3)o2)c1.[Na+] = 168

* * *

The entries below come with measured half-life values attached.
measurementNotes: Elimination half-life after peroral administration at a dose of 0.32 (mg/kg) in rat
Assay type: ADME, organism-based
setupConditions: in vivo, po
recordedMetric: half-life (min)

* O=C([O-])COc1cccc(C[C@@H]2CCC[C@@H]3O[C@]23c2nc(-c3ccccc3)c(-c3ccccc3)o2)c1.[Na+] | 1610
* O=C([O-])COc1cccc(C[C@@H]2CCC=C2c2nc(-c3ccccc3)c(-c3ccccc3)o2)c1.[Na+] | 1020
* O=C([O-])COc1cccc(C[C@@H]2CCCC=C2c2nc(-c3ccccc3)c(-c3ccccc3)o2)c1.[Na+] | 396

* * *

measurementNotes: Total body clearance of drug from the plasma after i.v. administration at a dose of 1 (mg/kg) in rat
Format: ADME, organism-based
setupConditions: iv, read-out: CLtot
recordedMetric: clearance (mL/min/kg)

- O=C([O-])COc1cccc(C[C@@H]2CCC[C@@H]3O[C@]23c2nc(-c3ccccc3)c(-c3ccccc3)o2)c1.[Na+]: 18.6

* * *

Organism: Canis familiaris
measurementNotes: Inhibition of ADP-induced aggregation of dog platelets
Type: functional
setupConditions: Canis lupus familiaris
recordedMetric: IC50 (nM)

* O=C([O-])COc1cccc(C[C@@H]2CCC[C@@H]3O[C@]23c2nc(-c3ccccc3)c(-c3ccccc3)o2)c1.[Na+] | 1470

* * *

measurementNotes: Bioavailability of the drug after […] administration at a dose of 1 (mg/kg) in rat
Type: ADME, organism-based
setupConditions: in vivo, iv, read-out: Ba
recordedMetric: bioavailability (%)

* O=C([O-])COc1cccc(C[C@@H]2CCC[C@@H]3O[C@]23c2nc(-c3ccccc3)c(-c3ccccc3)o2)c1.[Na+] | 20
